- Tested on: Saccharomyces cerevisiae
- Assay Info: protein stability index of tFT-peptide fusion (C-terminal peptide) (PSI (0-1 scale)); higher = more stable (slower turnover);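 note: PSI is a weighted mean of sequencing reads over stability bins, variants kept only with over 10 reads, mCherry proximal and sfGFP distal, peptide attached via GGGS linker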
- Measurement Setup: genetic background: cdc34-1; temperature: 37 C
// values below are reported protein stability index
Reported Endpoint: protein stability index

INSERT INTO assay_data (construct_sequence, reported_endpoint, assay_value) VALUES
  ('PPTPYPRFIFSF', 'protein stability index', 0.688),
  ('EKKNQTAYNKTV', 'protein stability index', 0.691),
  ('TTATLSFAICAV', 'protein stability index', 0.412),
  ('CGFVCGLCLCRV', 'protein stability index', 0.552),
  ('LYRIETLFMRAQ', 'protein stability index', 0.353),
  ('VISVFAISTRVD', 'protein stability index', 0.489),
  ('MGVTVRVEGIRA', 'protein stability index', 0.52),
  ('KMKGLINKRKES', 'protein stability index', 0.533),
  ('FALPPSLLLLSA', 'protein stability index', 0.544),
  ('VVLWVVCWGCWK', 'protein stability index', 0.237);

---

// values below are reported protein stability index
- Tested on: Saccharomyces cerevisiae
- Assay Info: protein stability index of tFT-peptide fusion (C-terminal peptide) (PSI (0-1 scale)); higher = more stable (slower turnover)
- Measurement Setup: genetic background: wild type; temperature: 30 C
Reported Endpoint: protein stability index

INSERT INTO results (construct_sequence, assay_value) VALUES
  ('PLPPRLPPPPPS', 0.72),
  ('REDSGGVNWGRC', 0.692),
  ('KKNLITRQNPLS', 0.69),
  ('LPPPSPPTPPFP', 0.691),
  ('SPFLTPPPPRPA', 0.682),
  ('GGGGGGSRVWSA', 0.698),
  ('RNRKQEKKENKN', 0.695),
  ('VSNIVGRSLSCR', 0.688),
  ('PFWGKWVPSSYL', 0.713);

---

- Tested on: Saccharomyces cerevisiae
- Assay Info: protein stability index of tFT-peptide fusion (C-terminal peptide) (PSI (0-1 scale)); higher = more stable (slower turnover)
- Measurement Setup: genetic background: doa10 deletion; temperature: 30 C
Reported Endpoint: protein stability index

INSERT INTO assay_data (construct_sequence, reported_endpoint, assay_value) VALUES
  ('SLCELRCLLRVG', 'protein stability index', 0.471),
  ('SLRSRSLRCRLS', 'protein stability index', 0.288),
  ('YWGFHPCCAFGY', 'protein stability index', 0.654),
  ('ACGAGFIILLGL', 'protein stability index', 0.571),
  ('VRTFAVSCLCVC', 'protein stability index', 0.126),
  ('GVAILFTFFRLL', 'protein stability index', 0.0564),
  ('FKYRVPLVGVVK', 'protein stability index', 0.203),
  ('DLRGLGRFRISH', 'protein stability index', 0.486),
  ('PLTSPLLFPVFA', 'protein stability index', 0.219),
  ('LSVYGFYKMPAG', 'protein stability index', 0.521),
  ('LFVVFVLLTFFV', 'protein stability index', 0.207),
  ('GLACNPQLLRWT', 'protein stability index', 0.665),
  ('SVSQTSILDSRL', 'protein stability index', 0.667),
  ('KKKKRVKIQKKN', 'protein stability index', 0.259),
  ('GELPGELYKFWL', 'protein stability index', 0.671),
  ('IYTLIINKSKAQ', 'protein stability index', 0.282),
  ('NGLVCVFILSWY', 'protein stability index', 0.21),
  ('NYCVFLSYLLFC', 'protein stability index', 0.205),
  ('RASLPSLFRSLL', 'protein stability index', 0.815),
  ('KIKQIKINNKIN', 'protein stability index', 0.0896),
  ('ERNERKYKIKIT', 'protein stability index', 0.179),
  ('IRHALHFRVVAV', 'protein stability index', 0.394),
  ('KIILMCYTLITL', 'protein stability index', 0.201),
  ('CVFGFACRVLVV', 'protein stability index', 0.241),
  ('LFNRCCTILVVW', 'protein stability index', 0.181),
  ('LFGFILLGVSCC', 'protein stability index', 0.156),
  ('TGRLFVSLRVWY', 'protein stability index', 0.302),
  ('SVPIAFYLLFFQ', 'protein stability index', 0.434),
  ('DPTLLLYPLSPL', 'protein stability index', 0.667),
  ('LPALPFPIPTFA', 'protein stability index', 0.134),
  ('PLATSLIGLFVV', 'protein stability index', 0.273),
  ('FLSRVVLVVLLV', 'protein stability index', 0.196);

---

- System: Saccharomyces cerevisiae
- Assay Info: protein stability index of tFT-peptide fusion (C-terminal peptide) (PSI (0-1 scale)); higher = more stable (slower turnover)
- Measurement Setup: genetic background: doa10 deletion; temperature: 30 C
Tick 1 (yes) if protein stability index is 0.2 or greater. Tick 0 (no) if protein stability index is less than 0.2.

INSERT INTO measurements (construct_sequence, tested_system, classification) VALUES
  ('PCLPLTPMWTLF', 'Saccharomyces cerevisiae', '1 (yes)'),
  ('ALFISLAIWNWS', 'Saccharomyces cerevisiae', '0 (no)'),
  ('LWAPFWVSRVTA', 'Saccharomyces cerevisiae', '1 (yes)'),
  ('PPSRSPLPPLLH', 'Saccharomyces cerevisiae', '1 (yes)'),
  ('CFCLFVFFISSC', 'Saccharomyces cerevisiae', '0 (no)'),
  ('TLWWRQPFWGFG', 'Saccharomyces cerevisiae', '1 (yes)'),
  ('FVFAMSECIVLS', 'Saccharomyces cerevisiae', '1 (yes)'),
  ('FVCWGSLILCGG', 'Saccharomyces cerevisiae', '0 (no)'),
  ('AYCGGRNKCTTE', 'Saccharomyces cerevisiae', '1 (yes)'),
  ('VLRLLARRHAMV', 'Saccharomyces cerevisiae', '0 (no)'),
  ('LVCLTPPPSPFS', 'Saccharomyces cerevisiae', '1 (yes)'),
  ('HVLALIFLYIPD', 'Saccharomyces cerevisiae', '1 (yes)'),
  ('FPCRNFMVFFCF', 'Saccharomyces cerevisiae', '1 (yes)'),
  ('VFFFNALFCFFC', 'Saccharomyces cerevisiae', '1 (yes)'),
  ('YFTNCYRSILTF', 'Saccharomyces cerevisiae', '1 (yes)'),
  ('PPTPYPRFIFSF', 'Saccharomyces cerevisiae', '1 (yes)'),
  ('GIVYFDQWISVS', 'Saccharomyces cerevisiae', '1 (yes)'),
  ('PSSVKLRVPSLY', 'Saccharomyces cerevisiae', '1 (yes)'),
  ('LRKARLFLKAKC', 'Saccharomyces cerevisiae', '0 (no)'),
  ('IEVACLLTAFCD', 'Saccharomyces cerevisiae', '1 (yes)'),
  ('FVVVGLGLLCLA', 'Saccharomyces cerevisiae', '1 (yes)'),
  ('SLCSSVQVWSVV', 'Saccharomyces cerevisiae', '1 (yes)'),
  ('WLLSFLRFLVLR', 'Saccharomyces cerevisiae', '1 (yes)'),
  ('KKNLTHSIRVQA', 'Saccharomyces cerevisiae', '1 (yes)'),
  ('VRHPVVVVRRVI', 'Saccharomyces cerevisiae', '1 (yes)'),
  ('PLLSATLTRRLA', 'Saccharomyces cerevisiae', '0 (no)'),
  ('NFFIQFHNLLFP', 'Saccharomyces cerevisiae', '1 (yes)'),
  ('TLPIWLRVLIFG', 'Saccharomyces cerevisiae', '1 (yes)'),
  ('GQFFRCWRRRLC', 'Saccharomyces cerevisiae', '0 (no)'),
  ('EGREGGGRGEVL', 'Saccharomyces cerevisiae', '1 (yes)'),
  ('ACIFDMMWFWLF', 'Saccharomyces cerevisiae', '1 (yes)'),
  ('QPTGYFKLIIIK', 'Saccharomyces cerevisiae', '1 (yes)'),
  ('HRARILLIRICP', 'Saccharomyces cerevisiae', '1 (yes)'),
  ('SRLMLPLSPLVC', 'Saccharomyces cerevisiae', '1 (yes)'),
  ('VICSLFRYIMRL', 'Saccharomyces cerevisiae', '0 (no)'),
  ('KGSKGELGVHVG', 'Saccharomyces cerevisiae', '1 (yes)'),
  ('IRWCLVSVFYVV', 'Saccharomyces cerevisiae', '0 (no)'),
  ('LVGWSWRGWFVV', 'Saccharomyces cerevisiae', '0 (no)'),
  ('LCSCMWISAIAI', 'Saccharomyces cerevisiae', '1 (yes)'),
  ('IFVFVSFPSCVL', 'Saccharomyces cerevisiae', '1 (yes)'),
  ('PALPQPMNPAPP', 'Saccharomyces cerevisiae', '1 (yes)'),
  ('VWSCILPMVYVW', 'Saccharomyces cerevisiae', '0 (no)'),
  ('MSRALSVLVVVA', 'Saccharomyces cerevisiae', '0 (no)'),
  ('RVWTTVFIIRAT', 'Saccharomyces cerevisiae', '1 (yes)'),
  ('RLPRILVLVCLF', 'Saccharomyces cerevisiae', '0 (no)'),
  ('IFSGCRIALSVF', 'Saccharomyces cerevisiae', '0 (no)'),
  ('YLCFVVSCGVLR', 'Saccharomyces cerevisiae', '1 (yes)'),
  ('VSLSEVAIIVHG', 'Saccharomyces cerevisiae', '1 (yes)'),
  ('FFMLWCRVLLRL', 'Saccharomyces cerevisiae', '0 (no)'),
  ('SGRFRFVLLGLV', 'Saccharomyces cerevisiae', '0 (no)'),
  ('PSPPPYAPPIPA', 'Saccharomyces cerevisiae', '1 (yes)'),
  ('PFFVLFSLAFLF', 'Saccharomyces cerevisiae', '1 (yes)'),
  ('VISVFAISTRVD', 'Saccharomyces cerevisiae', '1 (yes)'),
  ('WLVCAGWVVLSC', 'Saccharomyces cerevisiae', '0 (no)'),
  ('FFLVILSWWVGE', 'Saccharomyces cerevisiae', '0 (no)'),
  ('LIEMVTTRYRLC', 'Saccharomyces cerevisiae', '0 (no)'),
  ('KYKLYGIMIIEG', 'Saccharomyces cerevisiae', '1 (yes)'),
  ('LRLCMVFAWFLT', 'Saccharomyces cerevisiae', '0 (no)'),
  ('FIGVLVYICREG', 'Saccharomyces cerevisiae', '0 (no)'),
  ('GGTFWDGLVLVH', 'Saccharomyces cerevisiae', '1 (yes)'),
  ('FSGRYFLLFRFL', 'Saccharomyces cerevisiae', '0 (no)'),
  ('SFSFRPCLLLFF', 'Saccharomyces cerevisiae', '1 (yes)'),
  ('RWCLVWGGVWGV', 'Saccharomyces cerevisiae', '1 (yes)'),
  ('SRSYNSPSLYVC', 'Saccharomyces cerevisiae', '0 (no)'),
  ('FYLSSCFLFLRF', 'Saccharomyces cerevisiae', '1 (yes)'),
  ('WLCLGLVVGLFL', 'Saccharomyces cerevisiae', '1 (yes)'),
  ('PALVVALLASVL', 'Saccharomyces cerevisiae', '1 (yes)'),
  ('RRMGLRLFLLWM', 'Saccharomyces cerevisiae', '1 (yes)'),
  ('YPFSLVLGVFAF', 'Saccharomyces cerevisiae', '1 (yes)'),
  ('LYVQSVCFSVPR', 'Saccharomyces cerevisiae', '1 (yes)');
